Where do the numbers come from? From patent EP2272817A1.

# reported inhibition at 1 µM; entries follow
# target: recombinant human PAI-1 (Homo sapiens)
# experiment.summary: Test Example 2: Human PAI-1 Inhibitory Activity (pH 7.4 HEPES buffer, 10 minutes incubation with two-chain tPA)
# Assay type: biochemical
# Parameters: purchased Molecular Innovations, Inc
# condition.label: read-out: Inhibition Rate of PAI-1 Activity (%)

Examples with answers:
compound	inhibition at 1 µM
O=C(O)C(=O)N(CCCCc1ccccc1)c1cc(-c2ccc(OC(F)(F)F)cc2)ccc1OC1C2CC3CC(C2)CC1C3 (centres unmarked)	> 99%
CCCCCOc1ccc(-c2cccc(C)c2)cc1N(CCCCc1ccccc1)C(=O)C(=O)O	78%

Hello, please tell me recorded inhibition at 1 µM for this one: O=C(O)C(=O)N(CCCCc1ccccc1)c1cc(-c2ccc(OC(F)(F)F)cc2)ccc1OC1CCCCCC1 > 99%

Hello, please tell me recorded inhibition at 1 µM for this one: CC(C)(C)c1cccc(Oc2cc(-c3ccc(OC(F)(F)F)cc3)ccc2CCC(=O)O)c1 45%

Hello, please tell me recorded inhibition at 1 µM for this one: CCCCC(Oc1cc(-c2ccc(OC(F)(F)F)cc2)ccc1Oc1ccccc1)C(=O)O (centres unmarked) 22%

Hello, please tell me recorded inhibition at 1 µM for this one: O=C(O)CCc1ccc(-c2ccc(OC(F)(F)F)cc2)cc1OC(c1ccccc1)c1ccccc1 49%

Hello, please tell me recorded inhibition at 1 µM for this one: CCCCCOc1ccc(-c2ccc(C)cc2)cc1N(CCCCc1ccccc1)C(=O)C(=O)O 93%

Hello, please tell me recorded inhibition at 1 µM for this one: CCCCCOc1ccc(-c2ccc(OC(F)(F)F)cc2)cc1N(CC(=O)O)C(=O)CCCc1ccccc1 32%

Hello, please tell me recorded inhibition at 1 µM for this one: Cc1cc(C)cc(-c2ccc(CCC(=O)O)c(Oc3ccc(C(C)(C)C)cc3)c2)c1 44%

Hello, please tell me recorded inhibition at 1 µM for this one: CC(C)(C)c1ccc(Oc2cc(-c3cc(Cl)ccc3Cl)ccc2CCC(=O)O)cc1 73%

Hello, please tell me recorded inhibition at 1 µM for this one: CCCCN(CC(=O)O)c1ccc(-c2ccc(OC(F)(F)F)cc2)cc1Oc1ccc(C(C)(C)C)cc1 97%

Hello, please tell me recorded inhibition at 1 µM for this one: CCCCCCCCCCCCCCCOc1ccc(-c2ccc(OC(F)(F)F)cc2)cc1N(CCCCc1ccccc1)C(=O)C(=O)O > 99%

Hello, please tell me recorded inhibition at 1 µM for this one: O=C(O)C(=O)N(CCCCc1ccccc1)c1ccc(N2CCCCCC2)c(-c2ccc(OC(F)(F)F)cc2)c1 > 99%

Hello, please tell me recorded inhibition at 1 µM for this one: CCN(CC)c1ccc(N(Cc2ccc(C(C)(C)C)cc2)C(=O)C(=O)O)cc1-c1ccc(OC(F)(F)F)cc1 48%

Hello, please tell me recorded inhibition at 1 µM for this one: CCCCOc1ccc(-c2ccc(OC(F)(F)F)cc2)cc1CCC(=O)O 14%

* * *

# target: recombinant human PAI-1 (Homo sapiens)
# experiment.summary: Test Example 2: Human PAI-1 Inhibitory Activity (pH 7.4 HEPES buffer, 10 minutes incubation with two-chain tPA)
# Format: biochemical
# Parameters: purchased Molecular Innovations, Inc
# condition.label: read-out: Inhibition Rate of PAI-1 Activity (%)
inhibition at 0.1 µM below 10% gives F; inhibition at 0.1 µM at or above it gives T.

compound	target	class.label
CC(C)(C)c1ccc(Oc2cc(-c3ccc(OC(F)(F)F)cc3)ccc2CCC(=O)O)cc1 [Compound 80]	recombinant human PAI-1 (Homo sapiens)	F
CC(C)(C)c1ccc(Oc2cccc(-c3ccc(OC(F)(F)F)cc3)c2CCC(=O)O)cc1 [Compound 94]	recombinant human PAI-1 (Homo sapiens)	F
CC(C)(C)c1ccc(Oc2cc(-c3ccc(C(F)(F)F)cc3)ccc2OCC(=O)O)cc1 [Compound 330]	recombinant human PAI-1 (Homo sapiens)	F
CCCCCOc1ccc(-c2ccc(OC(F)(F)F)cc2)cc1N(CCCOc1ccccc1)C(=O)C(=O)O [Compound 356]	recombinant human PAI-1 (Homo sapiens)	F
CCC(CC)Oc1ccc(N(CCCc2ccccc2)C(=O)C(=O)O)cc1-c1ccc(OC(F)(F)F)cc1 [Compound 230]	recombinant human PAI-1 (Homo sapiens)	F
CCCCC(CC(=O)O)c1cc(-c2ccc(OC(F)(F)F)cc2)ccc1Oc1ccc(C(C)(C)C)cc1 (stereo not shown) [Compound 422]	recombinant human PAI-1 (Homo sapiens)	T

Dear colleague, could you confirm whether CC(C)(C)c1ccc(Oc2ccc(-c3cccc(OC(F)(F)F)c3)cc2OCC(=O)O)cc1 [Compound 329] has inhibition at 0.1 µM at or above 10%? F

Dear colleague, could you confirm whether CCC(CC)Oc1ccc(-c2ccc(/C=C/C(=O)O)c(Oc3ccc(C(C)(C)C)cc3)c2)cc1 [Compound 521] has inhibition at 0.1 µM at or above 10%? T

Dear colleague, could you confirm whether CC(C)c1ccc(-c2ccc(/C=C/C(=O)O)c(Sc3ccc(C(C)(C)C)cc3)c2)cc1 [Compound 520] has inhibition at 0.1 µM at or above 10%? T

* * *

# reported inhibition at 3 µM; entries follow
# target: recombinant rat PAI-1 (Rattus norvegicus, UniProt P20961)
# Sequence (P20961 24-402): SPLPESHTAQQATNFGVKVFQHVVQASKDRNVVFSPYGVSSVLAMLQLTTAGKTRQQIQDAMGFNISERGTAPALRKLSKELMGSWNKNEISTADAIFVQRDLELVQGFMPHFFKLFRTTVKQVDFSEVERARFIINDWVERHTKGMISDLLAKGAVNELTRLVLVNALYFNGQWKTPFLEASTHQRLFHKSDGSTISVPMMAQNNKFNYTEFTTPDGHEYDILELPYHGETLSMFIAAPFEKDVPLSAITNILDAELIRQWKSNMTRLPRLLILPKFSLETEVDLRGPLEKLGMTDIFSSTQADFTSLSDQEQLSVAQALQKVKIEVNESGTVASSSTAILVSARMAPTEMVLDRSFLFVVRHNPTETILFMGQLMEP
# experiment.summary: biochemical
# condition.label: read-out: Inhibition Rate of PAI-1 Activity (%)
Number in %, nothing else.

1) CC(C)(C)c1ccc(Oc2cc(-c3ccc(OC(F)(F)F)cc3)ccc2CCC(=O)O)cc1 71
2) CCCCOc1ccc(-c2ccc(OC(F)(F)F)cc2)cc1N(Cc1ccc(C(C)(C)C)cc1)C(=O)C(=O)O 93

Hello, please tell me recorded inhibition at 3 µM for this one: CC(C)(C)c1ccc(CN(C(=O)C(=O)O)c2ccc(Cl)cc2-c2ccc(OC(F)(F)F)cc2)cc1 76

Hello, please tell me recorded inhibition at 3 µM for this one: CCCOc1ccc(N(Cc2ccc(C(C)(C)C)cc2)C(=O)C(=O)O)c(-c2ccc(OC(F)(F)F)cc2)c1 84

Hello, please tell me recorded inhibition at 3 µM for this one: CCCCOc1ccc(N(CCCCc2ccccc2)C(=O)C(=O)O)cc1-c1ccc(OC(F)(F)F)cc1 77

Hello, please tell me recorded inhibition at 3 µM for this one: CCN(CC)c1ccc(N(Cc2ccc(C(C)(C)C)cc2)C(=O)C(=O)O)c(-c2ccc(OC(F)(F)F)cc2)c1 82

Hello, please tell me recorded inhibition at 3 µM for this one: CCC(CC)Oc1ccc(N(CCCc2ccccc2)C(=O)C(=O)O)cc1-c1ccc(OC(F)(F)F)cc1 83

Hello, please tell me recorded inhibition at 3 µM for this one: CC(C)(C)c1ccc(CN(C(=O)C(=O)O)c2cc(-c3ccc(OC(F)(F)F)cc3)cc(C(F)(F)F)c2)cc1 85

Hello, please tell me recorded inhibition at 3 µM for this one: O=C(O)CCc1cc(-c2ccc(OC(F)(F)F)cc2)ccc1OCCCCc1ccccc1 55

* * *

# reported inhibition at 0.3 µM; entries follow
# target: recombinant human PAI-1 (Homo sapiens)
# experiment.summary: Test Example 2: Human PAI-1 Inhibitory Activity (pH 7.4 HEPES buffer, 10 minutes incubation with two-chain tPA)
# Type: biochemical
# Design: purchased Molecular Innovations, Inc
# condition.label: read-out: Inhibition Rate of PAI-1 Activity (%)
Number in %, nothing else.

Examples with answers:
compound	inhibition at 0.3 µM / %
CC(C)c1ccc(Oc2cc(-c3ccc(OC(F)(F)F)cc3)ccc2CCC(=O)O)cc1 [Compound 510]	8
COc1cc(OC)c(N(Cc2ccc(C(C)(C)C)cc2)C(=O)C(=O)O)cc1-c1ccc(OC(F)(F)F)cc1 [Compound 190]	3
CCCCC(Oc1cc(-c2ccc(OC(F)(F)F)cc2)ccc1OCCCCc1ccc(Cl)cc1)C(=O)O (centres unmarked) [Compound 325]	5

// output inhibition at 0.3 µM; input CC(C)(C)c1ccc(Oc2cc(-c3ccc(C(C)(C)C)cc3)ccc2OCC(=O)O)cc1 [Compound 446] ; system recombinant human PAI-1 (Homo sapiens) 13

// output inhibition at 0.3 µM; input CC(C)c1ccc(Sc2cc(-c3ccc(OC(F)(F)F)cc3)ccc2/C=C/C(=O)O)cc1 [Compound 516] ; system recombinant human PAI-1 (Homo sapiens) 39

* * *

# target: recombinant human PAI-1 (Homo sapiens, UniProt P05121)
# Sequence (P05121 24-402): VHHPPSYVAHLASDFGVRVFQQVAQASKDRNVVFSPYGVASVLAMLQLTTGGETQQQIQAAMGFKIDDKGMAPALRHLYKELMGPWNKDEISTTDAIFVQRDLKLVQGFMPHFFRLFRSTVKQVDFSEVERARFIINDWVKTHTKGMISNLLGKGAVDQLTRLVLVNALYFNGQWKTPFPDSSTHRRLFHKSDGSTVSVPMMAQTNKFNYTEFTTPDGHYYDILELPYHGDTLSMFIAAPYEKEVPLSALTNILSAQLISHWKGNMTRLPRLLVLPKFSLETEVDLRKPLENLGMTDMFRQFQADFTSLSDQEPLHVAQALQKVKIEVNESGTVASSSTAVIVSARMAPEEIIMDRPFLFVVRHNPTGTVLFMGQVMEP
# experiment.summary: biochemical
# condition.label: read-out: Inhibition Rate of PAI-1 Activity (%)
value.type: inhibition at 25 µM (%)
Number in %, nothing else.

Examples with answers:
1) O=C(O)COc1cc(-c2ccc(OC(F)(F)F)cc2)ccc1OCCCCc1ccccc1 90
2) CC(C)(C)c1ccc(COc2cc(-c3ccc(OC(F)(F)F)cc3)ccc2/C=C/C(=O)O)cc1 91
3) Cc1ccc(N(Cc2ccc(C(C)(C)C)cc2)C(=O)C(=O)O)cc1OCc1ccc(OC(F)(F)F)cc1 91

Pending compound:
Hello, please tell me recorded inhibition at 25 µM for this one: CC(C)(C)c1ccc(CN(C(=O)C(=O)O)c2ccc(OCc3ccc(OC(F)(F)F)cc3)c(OCc3ccc(OC(F)(F)F)cc3)c2)cc1 88
